Test system: Ps. maltophilia, IID-1275
procedure-text: Antibacterial activity (MIC), standard method of Japan Society of Chemotherapy
Type: cell-based
condition-notes: Stenotrophomonas maltophilia, IID1275, strain Ps. maltophilia, read-out: minimum inhibitory concentration (MIC)
Recorded MIC for the following compounds

Worked cases, answers included:
>  <structure-smiles>
Cc1c(N2C[C@H](C3(N)CC3)C(F)(F)C2)c(F)c(N)c2c(=O)c(C(=O)O)cn([C@@H]3C[C@@H]3F)c12

>  <MIC>
0.05 µg/mL

$$$$
>  <structure-smiles>
C[C@H]1COc2c(N3C[C@H](F)[C@@H](C4(N)CC4)C3)c(F)cc3c(=O)c(C(=O)O)cn1c23

>  <MIC>
0.39 µg/mL

$$$$
>  <structure-smiles>
COc1c(N2C[C@@H](F)[C@@H](C3(N)CC3)C2)c(F)cc2c(=O)c(C(=O)O)cn([C@@H]3C[C@@H]3F)c12

>  <MIC>
0.2 µg/mL

$$$$
>  <structure-smiles>
CO[C@H]1CN(c2c(F)c(N)c3c(=O)c(C(=O)O)cn([C@@H]4C[C@@H]4F)c3c2C)C[C@@H]1C1(N)CC1

>  <MIC>
0.2 µg/mL

$$$$
>  <structure-smiles>
Cc1c(N2C[C@H](F)[C@@H](C3(N)CC3)C2)c(F)c(N)c2c(=O)c(C(=O)O)cn([C@@H]3C[C@@H]3F)c12

>  <MIC>
0.05 µg/mL

$$$$

Now for the compound whose MIC we want.
Per the record, `C[C@H]1COc2c(N3C[C@H](C4(N)CC4)C(F)(F)C3)c(F)cc3c(=O)c(C(=O)O)cn1c23` has MIC of 0.39 µg/mL

Reference source: patent EP0911328B1
